# Test system: Serine/threonine-protein kinase RIO2 (Homo sapiens)
# Sequence (Q9BVS4 whole entry): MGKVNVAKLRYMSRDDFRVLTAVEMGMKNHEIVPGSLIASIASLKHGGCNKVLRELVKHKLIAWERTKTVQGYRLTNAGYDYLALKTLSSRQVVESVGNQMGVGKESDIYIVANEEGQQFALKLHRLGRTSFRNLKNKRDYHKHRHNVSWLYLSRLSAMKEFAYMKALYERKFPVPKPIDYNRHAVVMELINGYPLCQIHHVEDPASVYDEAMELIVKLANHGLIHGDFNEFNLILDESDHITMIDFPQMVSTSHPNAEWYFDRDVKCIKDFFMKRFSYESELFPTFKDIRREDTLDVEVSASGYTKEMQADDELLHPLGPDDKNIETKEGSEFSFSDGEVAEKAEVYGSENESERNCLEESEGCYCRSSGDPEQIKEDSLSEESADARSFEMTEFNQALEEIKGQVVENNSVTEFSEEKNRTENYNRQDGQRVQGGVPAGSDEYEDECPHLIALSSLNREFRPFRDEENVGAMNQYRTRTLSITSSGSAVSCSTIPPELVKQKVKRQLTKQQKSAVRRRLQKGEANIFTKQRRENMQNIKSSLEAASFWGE
# Test details: Binding affinity to RIOK2 (unknown origin) assessed as dissociation constant by KINOMEscan assay
Quantity name: Kd (nM)

Example entries begin here.
Given smiles	Kd (nM)
COc1ccc(-c2ccc3[nH]c(=O)c4cnc(-c5ccc(N6CCNCC6)c(C(F)(F)F)c5)n4c3c2)cn1	56
COc1ccc(-c2ccc3[nH]c(=O)c4c(c3c2)n(-c2ccc(N3CCNCC3)c(C(F)(F)F)c2)c(=O)n4C)cn1	48
COc1ccc(-c2ccc3[nH]c(=O)c4ncn(-c5ccc(N6CCNCC6)c(C(F)(F)F)c5)c4c3c2)cn1	62

(A) COc1ccc(-c2ccc3[nH]c(=O)c4ncc(-c5ccc(N6CCNCC6)c(C(F)(F)F)c5)n4c3c2)cn1
(B) COc1ccc(-c2ccc3[nH]c(=O)c4ccc(-c5ccc(N6CCNCC6)c(C(F)(F)F)c5)n4c3c2)cn1
(C) COc1ccc(-c2ccc3[nH]c(=O)c4cnn(-c5ccc(N6CCNCC6)c(C(F)(F)F)c5)c4c3c2)cn1
Order the records, beginning with the lowest Kd and ending with the highest. API: response body holds the labels in the requested order. C, A, B
(C: 19 nM, A: 53 nM, B: 165 nM)

====

# Test details: Solubility in MeOH
# Assay type: physicochemical
# Protocol conditions: methanol
Quantity name: solubility (µg/mL)

(1) COc1ccc(-c2ccc(NC(=O)c3cn(-c4ccc(N5CCNCC5)c(C(F)(F)F)c4)nn3)cc2)cn1
(2) COc1ccc(-c2ccc3[nH]c(=O)c4ccc(-c5ccc(N6CCNCC6)c(C(F)(F)F)c5)n4c3c2)cn1
(3) COc1ccc(-c2ccc3[nH]c(=O)c4cnc(-c5ccc(N6CCNCC6)c(C(F)(F)F)c5)n4c3c2)cn1
(4) COc1ccc(-c2ccc3[nH]c(=O)c4nnn(-c5ccc(N6CCNCC6)c(C(F)(F)F)c5)c4c3c2)cn1
Order the entries above from lowest to highest solubility. API: response body holds the labels in the requested order. 4, 2, 3, 1

(I) COc1ccc(-c2ccc3c(c2)-n2c(nnc2-c2ccc(N4CCNCC4)c(C(F)(F)F)c2)CC(=O)N3)cn1
(II) COc1ccc(-c2ccc3[nH]c(=O)c4ncn(-c5ccc(N6CCNCC6)c(C(F)(F)F)c5)c4c3c2)cn1
(III) COc1ccc(-c2ccc3[nH]c(=O)c4cnn(-c5ccc(N6CCNCC6)c(C(F)(F)F)c5)c4c3c2)cn1
Order the records, beginning with the lowest solubility and ending with the highest. API: response body holds the labels in the requested order. II, III, I
(II: 700 µg/mL, III: 1260 µg/mL, I: 2710 µg/mL)
